system: Staphylococcus aureus; experiment: Selectivity ratio of MBC for methicillin-resistant Staphylococcus aureus PU 32 harboring i-ermA gene to MIC for methicillin-resistant Staphylococcus aureus PU 32 harboring i-ermA gene; assay type: functional
The compounds listed here are annotated with their Selectivity ratio.

molecular_string=CC[C@H]1OC(=O)[C@H](C)[C@@H](OC(=O)CCN2CCN(c3cc4c(cc3F)c(=O)c(C(=O)O)cn4CC)CC2)[C@H](C)[C@@H](O[C@@H]2O[C@H](C)C[C@H](N(C)C)[C@H]2O)[C@](C)(OC)C[C@@H](C)/C(=N\OCC#Cc2cncc(C(=O)NC)c2)[C@H](C)[C@H]2OC(=O)O[C@@]21C endpoint_value=>4

Return Selectivity ratio for the following compound: CC[C@H]1OC(=O)[C@H](C)[C@@H](OC(=O)CCN2CCN(c3nc4c(cc3F)c(=O)c(C(=O)O)cn4CC)CC2)[C@H](C)[C@@H](O[C@@H]2O[C@H](C)C[C@H](N(C)C)[C@H]2O)[C@](C)(OC)C[C@@H](C)/C(=N\OCC#Cc2cncc(C(=O)NC)c2)[C@H](C)[C@H]2OC(=O)O[C@@]21C
>4

State its Selectivity ratio for this compound: CC[C@H]1OC(=O)[C@H](C)[C@@H](OC(=O)CCN2CCN(c3cc4c(cc3F)c(=O)c(C(=O)O)cn4C3CC3)CC2)[C@H](C)[C@@H](O[C@@H]2O[C@H](C)C[C@H](N(C)C)[C@H]2O)[C@](C)(OC)C[C@@H](C)/C(=N\OCCCc2cncc(C(=O)NC)c2)[C@H](C)[C@H]2OC(=O)O[C@@]21C
>4

====

tested on: Staphylococcus aureus; assay: Selectivity ratio of MBC for methicillin-resistant Staphylococcus aureus PU 32 harboring i-ermA gene to MIC for methicillin-resistant Staphylococcus aureus PU 32 harboring i-ermA gene; assay type: functional
READOUT KIND: Selectivity ratio
Keep it simple and answer with nothing but the number.

molecular_string=CC[C@H]1OC(=O)[C@H](C)[C@@H](OC(=O)CCNCCCCNc2cc3c(cc2F)c(=O)c(C(=O)O)cn3C2CC2)[C@H](C)[C@@H](O[C@@H]2O[C@H](C)C[C@H](N(C)C)[C@H]2O)[C@](C)(OC)C[C@@H](C)/C(=N\OC)[C@H](C)[C@H]2OC(=O)O[C@@]21C readout_kind="Selectivity ratio" endpoint_value=2

// next entry
Fill in Selectivity ratio for record CC[C@H]1OC(=O)[C@H](C)[C@@H](OC(=O)CCNCCCCCCCNc2cc3c(cc2F)c(=O)c(C(=O)O)cn3C2CC2)[C@H](C)[C@@H](O[C@@H]2O[C@H](C)C[C@H](N(C)C)[C@H]2O)[C@](C)(OC)C[C@@H](C)/C(=N\OC)[C@H](C)[C@H]2OC(=O)O[C@@]21C
8

====

test system: Streptococcus pneumoniae; assay: Selectivity ratio of MBC for Streptococcus pneumoniae ATCC 49619 to MIC for Streptococcus pneumoniae ATCC 49619; assay type: functional
READOUT KIND: Selectivity ratio

molecular_string=CC[C@H]1OC(=O)[C@H](C)[C@@H](OC(=O)CCNCCCc2ccc3c(c2)c(=O)c(C(=O)O)cn3C2CC2)[C@H](C)[C@@H](O[C@@H]2O[C@H](C)C[C@H](N(C)C)[C@H]2O)[C@](C)(OC)C[C@@H](C)/C(=N\OC)[C@H](C)[C@H]2OC(=O)O[C@@]21C endpoint_value=2
molecular_string=CC[C@H]1OC(=O)[C@H](C)[C@@H](OC(=O)CCNCCCCNc2cc3c(cc2F)c(=O)c(C(=O)O)cn3C2CC2)[C@H](C)[C@@H](O[C@@H]2O[C@H](C)C[C@H](N(C)C)[C@H]2O)[C@](C)(OC)C[C@@H](C)/C(=N\OCC#Cc2ccc3c(c2)c(=O)c(C(N)=O)cn3CC)[C@H](C)[C@H]2OC(=O)O[C@@]21C endpoint_value=1
molecular_string=CC[C@H]1OC(=O)[C@H](C)[C@@H](OC(=O)CCN2CCN(c3cc4c(cc3F)c(=O)c(C(=O)O)cn4C3CC3)CC2)[C@H](C)[C@@H](O[C@@H]2O[C@H](C)C[C@H](N(C)C)[C@H]2O)[C@](C)(OC)C[C@@H](C)/C(=N\OCC#Cc2cncc3ccccc23)[C@H](C)[C@H]2OC(=O)O[C@@]21C endpoint_value=1
molecular_string=CC[C@H]1OC(=O)[C@H](C)[C@@H](OC(=O)CCNCCCCNc2cc3c(cc2F)c(=O)c(C(=O)O)cn3C2CC2)[C@H](C)[C@@H](O[C@@H]2O[C@H](C)C[C@H](N(C)C)[C@H]2O)[C@](C)(OC)C[C@@H](C)/C(=N\OC/C=C/c2cncc(C(N)=O)c2)[C@H](C)[C@H]2OC(=O)O[C@@]21C endpoint_value=>=1
molecular_string=CC[C@H]1OC(=O)[C@H](C)[C@@H](OC(=O)CCN2CCN(c3nc4c(cc3F)c(=O)c(C(=O)O)cn4CC)CC2)[C@H](C)[C@@H](O[C@@H]2O[C@H](C)C[C@H](N(C)C)[C@H]2O)[C@](C)(OC)C[C@@H](C)/C(=N\OCC#Cc2cncc(C(=O)NC)c2)[C@H](C)[C@H]2OC(=O)O[C@@]21C endpoint_value=1

Supply Selectivity ratio measured with Streptococcus pneumoniae for CC[C@H]1OC(=O)[C@H](C)[C@@H](OC(=O)CCNCCCCNc2cc3c(cc2F)c(=O)c(C(=O)O)cn3C2CC2)[C@H](C)[C@@H](O[C@@H]2O[C@H](C)C[C@H](N(C)C)[C@H]2O)[C@](C)(OC)C[C@@H](C)/C(=N\OCC#Cc2cncc(C(=O)NC3CC3)c2)[C@H](C)[C@H]2OC(=O)O[C@@]21C .
>=1

Write down measured Selectivity ratio (Streptococcus pneumoniae) for this compound. CC[C@H]1OC(=O)[C@H](C)[C@@H](OC(=O)CCNCCCCCCNc2cc3c(cc2F)c(=O)c(C(=O)O)cn3C2CC2)[C@H](C)[C@@H](O[C@@H]2O[C@H](C)C[C@H](N(C)C)[C@H]2O)[C@](C)(OC)C[C@@H](C)/C(=N\OC)[C@H](C)[C@H]2OC(=O)O[C@@]21C
1
